Recorded measurements of T/C, one per entry
# System: CD2F1 mice, L1210 leukemia sc, survival T/C
# assay_summary: NCI In Vivo Anticancer Drug Screen. Data for tumor model L1210 Leukemia (subcutaneous) in CD2F1 (CDF1) mice
# particulars: endpoint: median survival time; dose: 25.0 mg/kg/injection; schedule: Q01DX009 (ip); vehicle: saline; higher = longer survival
Inconclusive results and toxic doses are left out.

O=P1(NCCCl)OCCCN1CCCl (stereo not given)	161 % of control

Can you share its T/C? I mean this compound: `CC(=O)NNC(=O)c1ccccn1`
102 % of control

Can you share its T/C? I mean this compound: `Cc1c(-c2ccc(-c3ccccc3F)cc2)nc2ccc(F)cc2c1C(=O)O`
156 % of control

Can you share its T/C? I mean this compound: `CCN(CC)CCNc1ccc(C)c2sc3ccccc3c(=O)c12`
116 % of control

Can you share its T/C? I mean this compound: O=P1(N(CCCl)CCCl)NCCCO1 (stereo not given)
151 % of control

###

# System: CD2F1 mice, L1210 leukemia sc, survival T/C
# assay_summary: NCI In Vivo Anticancer Drug Screen. Data for tumor model L1210 Leukemia (subcutaneous) in CD2F1 (CDF1) mice
# particulars: endpoint: median survival time; dose: 14.0 mg/kg/injection; schedule: Q01DX Z (sc); vehicle: methylcellulose (MC); higher = longer survival
# Method: The antitumor activity of compounds was measured in mice bearing transplantable tumors. Survival or tumor size were measured and the results are expressed as the measurement made in the treated group (T) divided by the measurement made in the vehicle treated control group (C). The tumor model used in this assay is L1210 Leukemia (subcutaneous) in CD2F1 (CDF1) mice
Inconclusive results and toxic doses are left out.
Recorded measurements of T/C, one per entry

CS(=O)(=O)OCCCCOS(C)(=O)=O	100 % of control
Nc1cc(C(=O)Nc2ccc(C3=NCCN3)cc2)ccc1C(=O)Nc1ccc(C2=NCCN2)cc1	200 % of control
S=c1nc[nH]c2nc[nH]c12	100 % of control
N#[N+]c1cnc([O-])[nH]c1=O	100 % of control

Can you share its T/C? I mean this compound: `c1ccc(CNc2ncnc3[nH]ncc23)cc1`
100 % of control

Can you share its T/C? I mean this compound: `Clc1ccc(CNc2ncnc3[nH]ncc23)cc1Cl`
95 % of control

###

Recorded measurements of T/C, one per entry
# Test system: CD2F1 mice, L1210 leukemia sc, survival T/C
# assay_summary: NCI In Vivo Anticancer Drug Screen. Data for tumor model L1210 Leukemia (subcutaneous) in CD2F1 (CDF1) mice
# particulars: endpoint: median survival time; dose: 180.0 mg/kg/injection; schedule: Q01DX Z (sc); vehicle: carboxymethylcellulose (CMC); higher = longer survival
Toxic doses and inconclusive results are not listed.

CN(C)/N=N/c1nc[nH]c1C(N)=O	100 % of control
CN(C)c1ccc(/C=C2\C=Cc3ccccc32)cc1	100 % of control
Nc1ncnc2c1ncn2C(C=O)OC(C=O)CO (centres undefined)	100 % of control

Can you share its T/C? I mean this compound: CCOC(C)C(/C=N/NC(N)=S)=NNC(N)=S (centres undefined)
120 % of control

###

# Test system: CD2F1 mice, L1210 leukemia sc, survival T/C
# assay_summary: NCI In Vivo Anticancer Drug Screen. Data for tumor model L1210 Leukemia (subcutaneous) in CD2F1 (CDF1) mice
# particulars: endpoint: median survival time; dose: 180.0 mg/kg/injection; schedule: Q01DX Z (sc); vehicle: methylcellulose (MC); higher = longer survival
Inconclusive results and toxic doses are left out.
Recorded measurements of T/C, one per entry

CD2F1 mice, L1210 leukemia sc, survival T/C / T/C / `S=c1nc[nH]c2c1ncn2C1CCCC1` : value?
100 % of control

CD2F1 mice, L1210 leukemia sc, survival T/C / T/C / `Clc1ccc(CNc2ncnc3[nH]ncc23)cc1Cl` : value?
104 % of control
